Test system: RPMI-8226 leukemia
Assay protocol: NCI tumour cell line growth inhibition, 48 h
Quick list: TGI per entry.

>  <Mol>
N#CCCN(CCC#N)c1ccc(/C=N\c2nc(-c3ccccc3)cs2)cc1

>  <TGI>
> 100 µM

$$$$
>  <Mol>
Cc1ccc([N+](=O)[O-])cc1NC(=O)C(=O)Cc1cc(=O)oc2cc(O)ccc12

>  <TGI>
75.3 µM

$$$$
>  <Mol>
CN(C)CC(C)(C)C(/C=C/c1ccccc1)=N\Nc1ccccc1

>  <TGI>
19.4 µM

$$$$
>  <Mol>
Cc1[nH]n(-c2ccc(S(=O)(=O)O)cc2)c(=O)c1N=Nc1ccccc1

>  <TGI>
> 100 µM

$$$$
>  <Mol>
CNC(=O)c1n[nH]n(Cc2ccccc2)c1=S

>  <TGI>
> 100 µM

$$$$
>  <Mol>
O=C1c2ccccc2C(=O)c2c1oc(=O)c1ccccc21

>  <TGI>
19.2 µM

$$$$
>  <Mol>
CO/N=C(\COc1ccc2c(c1)oc(=O)c1cc(OC)ccc12)c1ccc(F)cc1

>  <TGI>
> 100 µM

$$$$
>  <Mol>
Cc1ccc(NC(=O)COC(=O)c2cccc3c(=O)c4ccccc4[nH]c23)cc1

>  <TGI>
> 100 µM

$$$$
>  <Mol>
BrCCC[P+](c1ccccc1)(c1ccccc1)c1ccccc1

>  <TGI>
> 100 µM

$$$$
>  <Mol>
c1nc(SSc2ncnc3nc[nH]c23)c2[nH]cnc2n1

>  <TGI>
> 100 µM

$$$$

====

Test system: HOP-62 NSCLC
Assay protocol: NCI tumour cell line growth inhibition, 48 h
Quick list: TGI per entry.
Metric name: TGI

>  <Molecule>
O=C1Cc2ccccc2N1c1c(Cl)cccc1Cl

>  <Result>
> 100 µM

$$$$
>  <Molecule>
Oc1ccc2c3c1OC1C(=NN=C4CCC5(O)C6Cc7ccc(O)c8c7C5(CCN6CC5CC5)C4O8)CCC4(O)C(C2)N(CC2CC2)CCC314 (centres undefined)

>  <Result>
> 65.7 µM

$$$$
>  <Molecule>
CC(=O)O[C@H]1CC[C@H]2[C@@H]3CCC4=C(C(=O)C=CC4(C)OC(C)=O)[C@H]3CC[C@]12C (some centres undefined)

>  <Result>
> 100 µM

$$$$
>  <Molecule>
BrCCC[P+](c1ccccc1)(c1ccccc1)c1ccccc1

>  <Result>
> 100 µM

$$$$

====

System: SF-268 CNS
Assay protocol: NCI tumour cell line growth inhibition, 48 h

>  <Mol>
COc1ccc2c(c1)O[C@H]1c3ccc(O)cc3OC[C@@H]21

>  <TGI>
> 100 µM

$$$$
>  <Mol>
N#CC(C#N)=Cc1ccc(C=C2SC3=C(SCCS3)S2)s1

>  <TGI>
> 100 µM

$$$$
>  <Mol>
COc1cc2c(oc(=O)c3cc4ccoc4c(OC)c32)c2cccc(O)c12

>  <TGI>
> 100 µM

$$$$

====

Quick list: TGI per entry.
Test system: LOX IMVI melanoma
Assay protocol: NCI tumour cell line growth inhibition, 48 h
Metric name: TGI (µM)

>  <Compound>
O=C1C=CC[C@H](/C=C/C[C@@H](O)C[C@H](O)/C=C/c2ccccc2)O1

>  <Value operator>
=

>  <Quantitative result>
13.3

$$$$
>  <Compound>
CC1CC(C)/C(=N/NC(N)=O)C(C(O)CC2CCC(=O)NC2=O)C1 (stereo not given)

>  <Value operator>
>

>  <Quantitative result>
100

$$$$
>  <Compound>
c1ccc(SC(Sc2ccccc2)c2ccc3c(c2)OCO3)cc1

>  <Value operator>
>

>  <Quantitative result>
100

$$$$
>  <Compound>
NC(CCCCN=Cc1nc(-c2ccccc2)oc1O)C(=O)O (stereo not given)

>  <Value operator>
>

>  <Quantitative result>
100

$$$$
>  <Compound>
COCC(=O)OC1CCn2c1nc1c2C(=O)C(C)=C(NC(C)=O)C1=N (stereo not given)

>  <Value operator>
=

>  <Quantitative result>
6.04

$$$$
>  <Compound>
O=C1Nc2ccccc2/C1=C/c1ccccc1

>  <Value operator>
=

>  <Quantitative result>
27.6

$$$$
>  <Compound>
c1ccc2c(-c3nc4ccccc4[nH]3)cccc2c1

>  <Value operator>
>

>  <Quantitative result>
100

$$$$
>  <Compound>
COc1ccc(C(=O)/C=C/c2ccc(OCC(=O)O)cc2)cc1

>  <Value operator>
>

>  <Quantitative result>
100

$$$$
>  <Compound>
OCCCCn1cc(Cn2ncc3c(SCc4ccccc4)ncnc32)nn1

>  <Value operator>
>

>  <Quantitative result>
100

$$$$
>  <Compound>
COC(=O)c1cc(-c2ccc(-c3ccc(O)cc3)cc2)cc(-c2ccc(-c3ccc(O)cc3)cc2)c1

>  <Value operator>
=

>  <Quantitative result>
18.4

$$$$
>  <Compound>
N#CCc1ccc(/C(C#N)=C2/OC(=N)C(c3ccc(CC#N)cc3)C2=O)cc1 (stereo not given)

>  <Value operator>
>

>  <Quantitative result>
100

$$$$
>  <Compound>
Cc1ccc([N+](=O)[O-])cc1NC(=O)C(=O)Cc1cc(=O)oc2cc(O)ccc12

>  <Value operator>
=

>  <Quantitative result>
97

$$$$
>  <Compound>
O[C@@H]1CCCN1Cc1cc2cc3c(cc2c2cc(OCc4ccccc4)ccc12)OCO3

>  <Value operator>
=

>  <Quantitative result>
3.44

$$$$
>  <Compound>
Fc1ccc(NCn2nc(COc3ccccc3Cl)n(/N=C/c3ccc(-c4ccc(Cl)cc4Cl)o3)c2=S)cc1Cl

>  <Value operator>
>

>  <Quantitative result>
100

$$$$
>  <Compound>
O=c1[nH]ccc2nc(-c3ccc(CN4CCC(c5nc(-c6ccccn6)n[nH]5)CC4)cc3)c(-c3ccccc3)cc12

>  <Value operator>
>

>  <Quantitative result>
94.2

$$$$
